test: amyloid nucleation score (Sup35N fusion, yeast selection) (log enrichment); library NNK1; higher = more nucleation; inactive = no reads after selection;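 note: zero at mode of non-aggregating sequences after 7 days selection at 30°C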
assay metric: amyloid nucleation score

Worked examples follow.
substance	amyloid nucleation score
RRKESYYGSSTYVSTNYAL	-0.075
NIWVLTYCLVYLSWSNHVF	-0.709
MNRHGYHNIWWYTTSHGLYT	-1.05
VHSGTKEKGF	1.05
LSHLRSLYKGCSYRMHSWMY	1.04

Please give the documented amyloid nucleation score of FPMWYYH
-0.366

Please give the documented amyloid nucleation score of HQVVRSFGELHLLWCRLDEG
0.204

Please give the documented amyloid nucleation score of VATYLLDHVYLNSCQSHCAM
1

Please give the documented amyloid nucleation score of KAEMFNYLTNHTP
-0.033

Please give the documented amyloid nucleation score of TDYIHLSIMIDFLGFTFQDR
1.46

Please give the documented amyloid nucleation score of LNVCSRTPWYKSQSFVDRCV
-1.69

Please give the documented amyloid nucleation score of QNTSEYSLRRERSR
-0.341

Please give the documented amyloid nucleation score of LRIARVYVYKIRAWSVVSGK
-1.35

---

experiment: amyloid nucleation score (Sup35N fusion, yeast selection) (log enrichment); library NNK2; higher = more nucleation; inactive = no reads after selection
Decide by amyloid nucleation score: equal to or exceeding 0.9 means criterion met, less means criterion not met.

Example results:
substance	cat
DLGYDLTINWAFERLADRVN	criterion not met
LILGLRGPLPCMLHNSGTYL	criterion not met
YFMVHIMGTVKIGRW	criterion met
ALYMDVRL	criterion met

Confirm if amyloid nucleation score reported for the substance CFCLPSNSNI is 0.9 or above.
criterion met

Confirm if amyloid nucleation score reported for the substance LCHYGCMVRESNLEYCPSME is 0.9 or above.
criterion not met

Confirm if amyloid nucleation score reported for the substance SMGINSGGRWRADSVSVGLR is 0.9 or above.
criterion not met

Confirm if amyloid nucleation score reported for the substance PHDVFRWCVCAVPGSERSTG is 0.9 or above.
criterion not met

Confirm if amyloid nucleation score reported for the substance FGSLTMEEFGDGDVVSNNKG is 0.9 or above.
criterion not met

Confirm if amyloid nucleation score reported for the substance PEMLHTVILGISSNHYERGL is 0.9 or above.
criterion not met

Confirm if amyloid nucleation score reported for the substance FHSRAEICLIWNHIVQDWRN is 0.9 or above.
criterion met

Confirm if amyloid nucleation score reported for the substance GWLYVYDSGMFGGWNIGVDG is 0.9 or above.
criterion not met

Confirm if amyloid nucleation score reported for the substance CFGISSS is 0.9 or above.
criterion not met

Confirm if amyloid nucleation score reported for the substance DVLGLSGACFGITERVDRLA is 0.9 or above.
criterion met

Confirm if amyloid nucleation score reported for the substance LNQNPLFTN is 0.9 or above.
criterion not met

Confirm if amyloid nucleation score reported for the substance WRYITCHS is 0.9 or above.
criterion met

Confirm if amyloid nucleation score reported for the substance VNIWAVNICC is 0.9 or above.
criterion met

---

assay: amyloid nucleation score (Sup35N fusion, yeast selection) (log enrichment); library NNK3; higher = more nucleation; inactive = no reads after selection
assay metric: amyloid nucleation score

Worked examples follow.
substance	assay metric	endpoint result
LKPQHSSGGSLSRMIYRPFL	amyloid nucleation score	2.18
FGLITYFLL	amyloid nucleation score	1
QLGDMNAAALITATASRLVM	amyloid nucleation score	inactive
VCADIVLPQMDLPGSSGREK	amyloid nucleation score	inactive
CVGSVPVMTKMVGDMGMASR	amyloid nucleation score	inactive

Please give the documented amyloid nucleation score of ITSEIMAIWFDICKAWDLCV
inactive

Please give the documented amyloid nucleation score of LTINDLCGFVKWLRTNCNVS
inactive

Please give the documented amyloid nucleation score of GSYFRATACPSLFCSFRVEW
inactive

Please give the documented amyloid nucleation score of FQARTPACPYVCSS
inactive

Please give the documented amyloid nucleation score of RMRSWMGCGRHCLWRHLEEL
inactive

---

experiment: amyloid nucleation score (Sup35N fusion, yeast selection) (log enrichment); library NNK1; higher = more nucleation; inactive = no reads after selection
Decide by amyloid nucleation score: equal to or exceeding -0.5 means 1 (yes), less means 0 (no).

substance	cat
CTFILVLHLLHINTDHIMSA	1 (yes)

Confirm if amyloid nucleation score reported for the substance MREELRGSETG is -0.5 or above.
0 (no)

Confirm if amyloid nucleation score reported for the substance FMLSFDTTFPLKVLIRTSPE is -0.5 or above.
0 (no)

Confirm if amyloid nucleation score reported for the substance SQQVHISNVHVLYLRWWTGC is -0.5 or above.
1 (yes)

Confirm if amyloid nucleation score reported for the substance HSAITNCRRVVTALIYRRVM is -0.5 or above.
0 (no)

Confirm if amyloid nucleation score reported for the substance HCHFIFGGMIGS is -0.5 or above.
1 (yes)

---

assay: amyloid nucleation score (Sup35N fusion, yeast selection) (log enrichment); library NNK3; higher = more nucleation; inactive = no reads after selection
assay metric: amyloid nucleation score

Worked examples follow.
substance	amyloid nucleation score
VFPLSAY	inactive
CIKTCSCLSLPGLRFSPAIS	inactive
RDLCIPWLCRAFFPAMCVVI	inactive
MWSHLVCCNRQPENLYG	1.32
PTLLTMRQEQRHAKNFRSNL	inactive
VIILTYVSMLTTAHINGWSG	0.309
LDTSNMPTYGLKSEVSVIAR	inactive
CFANSSYLIGTCLRCACNDR	2.37

Please give the documented amyloid nucleation score of FSYCSLWGKCVCDIFTNGQL
2.81

Please give the documented amyloid nucleation score of GRRYRKFDNTGGNSPK
inactive

Please give the documented amyloid nucleation score of MRARLFNRITYIGNECNVLS
inactive

Please give the documented amyloid nucleation score of DMVLLWQEFDCGKVACLSGG
inactive

Please give the documented amyloid nucleation score of GGTAHNIGCVSRLVMPARGI
inactive

Please give the documented amyloid nucleation score of GNCTSVLDPSELVVYHCEGS
inactive

Please give the documented amyloid nucleation score of ITTFVVMCDLVVLVC
inactive

Please give the documented amyloid nucleation score of RSAERRAQNSNFKLVDLGRN
inactive

Please give the documented amyloid nucleation score of TCIGNNPMPYFTFCITHNAM
1.03

---

# amyloid nucleation score values compiled below
assay: amyloid nucleation score (Sup35N fusion, yeast selection) (log enrichment); library NNK2; higher = more nucleation; inactive = no reads after selection
The answer should be written as a number, with no unit following it.

Worked examples follow.
substance	assay metric	endpoint result
TSDPEFV	amyloid nucleation score	-0.627
FLWYGISVI	amyloid nucleation score	0.02
GCGSPQSTFPRERCQVLVTA	amyloid nucleation score	0.829
CRMYRSRCNCMCDRVVEMWG	amyloid nucleation score	-0.407
PFVTFATVFLLKPMVFAKQC	amyloid nucleation score	1.23

Please give the documented amyloid nucleation score of SVCYGSSIWN
-0.083

Please give the documented amyloid nucleation score of FRYIKPTCSFICLVRFVGDF
-0.833

Please give the documented amyloid nucleation score of VMHFDLQICDRVHSRKSAPR
8.52

Please give the documented amyloid nucleation score of YYNSATPTDDGWWKISG
-0.574

Please give the documented amyloid nucleation score of GLLVLLLETCWKLVSFDLRK
0.561

Please give the documented amyloid nucleation score of MTQPEGY
0.325

Please give the documented amyloid nucleation score of NVVMHRENVYFCLVNLHWTD
7.84

---

assay: amyloid nucleation score (Sup35N fusion, yeast selection) (log enrichment); library NNK2; higher = more nucleation; inactive = no reads after selection
# amyloid nucleation score values compiled below
The answer should be written as a number, with no unit following it.

Worked examples follow.
construct sequence	amyloid nucleation score
DSSGFCMMVYYIQ	-0.365
MPGYYPMGSL	0.427
EHLWYLIREIPNHEFKNKLE	0.073

Please give the documented amyloid nucleation score of CSMMEPTMY
0.269

Please give the documented amyloid nucleation score of ESSSVKPPVRFLW
0.455

Please give the documented amyloid nucleation score of FRLNMAYDEPVCLMGSVHNV
-1.38

Please give the documented amyloid nucleation score of TRFCCVATHFDYNLIIFYYP
0.554

Please give the documented amyloid nucleation score of ALKSCVLNDKVRRFLAWRLG
-0.183

---

assay: amyloid nucleation score (Sup35N fusion, yeast selection) (log enrichment); library NNK3; higher = more nucleation; inactive = no reads after selection
assay metric: amyloid nucleation score

Worked examples follow.
substance	amyloid nucleation score
VLLVLVI	inactive
RNYFMVLGRKYVFLFFWMMM	inactive
GSYYWGGIGFTSEI	0.846
SCISKWST	inactive
KYSMTK	inactive

Please give the documented amyloid nucleation score of RHSLQMVRGTHSLCLWYNWV
inactive

Please give the documented amyloid nucleation score of FWGFPRKSYADMMGSTRGSA
inactive

Please give the documented amyloid nucleation score of HSWNKCDVYAWGLCTFISWC
0.987

Please give the documented amyloid nucleation score of FDFKAYESCCSLLRYLMDPW
inactive
